Values compiled from patent US20260069689A1.

- subject.of.test: SARS-COV-2 RBD-MMH (SARS-COV-2 RBD extracellular domain with C-terminal myc-myc-hexahistidine tag) (SARS-CoV-2)
Would you kindly list t½ at pH 7.4 for each of these binders?
One number for each entry, in min.

Some binders with known t½ at pH 7.4 results, for comparison:
1. mAb15159 (antibody, V domains shown) VH: EVQLVESGGGLVQPGGSLRLSCAASGITVSSNYMTWVRQAPGKGLEWVSLIYSGGSTFYADSVRGRFTISRDNSKNTLYLQMNSLRAEDTAVYYCARDLVVYGMDVWGQGTTVTVSS VL: DIQLTQSPSSLSASVGDRVTITCRASQGISSYLAWYQQKPGKAPKLLIYAASTLQSGVPSRFSGSGSGTDFTLTISSLQPEDFATYYCQHLNSDPHTFGQGTKLEIKR
50
2. mAb13458 (antibody, V domains shown) VH: EVQLVESGGGLVQPGRSLRLSCAASGFTFDDYAMHWVRQAPGKGLEWVSGISWNSGSIGYADSVKGRFTISRDNAKNSLYLQMNSLRAEDTALYYCAKDIGITTPYWGQGTLVTVSS VL: AIQMTQSPSSLSASVGDRVTITCRASQDIRNDLGWYQQKPGKAPKLLIYSASSLQTGVPSRFSGSGSGTDFTLTISSLHPEDFATYYCLQDYWYTWTFGQGTKVEIKR
7.2

Now, please, on to the next binder.
Please fill in: t½ at pH 7.4 reported for mAb14234 (antibody, V domains shown) VH: QVQLVESGGGVVQPGRSLRLSCAASGFTFSSYGIHWVRQAPGKGLEWVAIIWYDGSEKYYADSVKGRFTISRDNSKNTLFLQMNSLEAEDTAVYYCARGPDLLTGYYNYFYYGMDVWGQGTTVTVSS VL: QSVLTQPPSVSGAPGQRVTISCTGSSSNIGIGYDVHWYQQLPGTVPKLLIYGNTNRPSGVPDRFSGSKSGTSASLAITGLQAEDEADYYCQSYDSSLSSYVFGTGTKVTVLG = 5.2
